Here the recorded solubility (g/100 g solution) is given for each entry.
measurement protocol: xn = mol fraction of the nth substance listed, in the solute-free solvent
experimental parameters: 318.15 K; x2 = 0.7
# print the numeric value only

# compound, solubility (g/100 g solution)
rows = [
    ("OCCN(CCO)c1nc(N2CCCCC2)c2nc(N(CCO)CCO)nc(N3CCCCC3)c2n1 + CC(C)O + O", 23.7),
    ("OCCN(CCO)c1nc(N2CCCCC2)c2nc(N(CCO)CCO)nc(N3CCCCC3)c2n1 + CO + O", 11.5),
    ("S=c1[nH]ncs1 + CCO + O", 25.4),
    ("S=c1[nH]ncs1 + CCCO + O", 22.2),
    ("CCCCCOC(=O)Nc1nc(=O)n(C2OC(C)C(O)C2O)cc1F (configuration not stated) + CCOC(C)=O + CCCCCCC", 1.63),
]

Requested field: solubility (g/100 g solution). Item: OCCN(CCO)c1nc(N2CCCCC2)c2nc(N(CCO)CCO)nc(N3CCCCC3)c2n1 + CCO + O
21.9

Same question, S=c1[nH]ncs1 + CC(C)=O + O this time
37.1
